Every entry's value here was drawn from patent US20250011363A1.

target: acetylcholine receptor; assay: SPR, AchR immobilized on CM5 chip, peptide 10 uM
Reported log10 Binding affinity (RU) values follow for various binders
Remember, log10 of Binding affinity (RU), in RU.

{"columns": ["binder", "property.label", "value.observed"],
 "data": [
  ["KKWYRK [6mer-1-369]", "log10 Binding affinity (RU)", 2.16],
  ["KRNCAK [6mer-1-772]", "log10 Binding affinity (RU)", 1.08],
  ["RKQRLK [6mer-1-348]", "log10 Binding affinity (RU)", 2.15],
  ["KKLYTK [6mer-1-343]", "log10 Binding affinity (RU)", 2.13]
]}

Quick check: log10 Binding affinity (RU) of RKMSVK [6mer-1-746] ?
1.38

Quick check: log10 Binding affinity (RU) of RRAWNK [6mer-1-797] ?
1.34

Quick check: log10 Binding affinity (RU) of KKDTHK [6mer-1-753] ?
1.08

Quick check: log10 Binding affinity (RU) of KRQVLR [6mer-1-385] ?
2.10
